- system_under_test: T1, human OT7T175 (metastin receptor) (human, UniProt Q969F8 1-398)
- T1 construct: expressed on CHO cells (hOT7T175-expressed CHO cells; hOT7T175/CHO); also called hOT7T175; h0T7T175
- assay_procedure: FMAT competition with Cy-5-labeled metastin (40-54), hOT7T175-expressed CHO cells
pIC50: −log10 of the molar value. Square brackets hold non-standard residues; d marks the D form. Ends that are not written are not given here. Arg(Me) = CNC(=N)NCCC[C@H](N)C(=O)O; 4Pal = N[C@@H](Cc1ccncc1)C(=O)O; azaGly = NNC(=O)O
Kindly return Criterion met if reported pIC50 is no lower than 7; return Criterion not met if it is lower.

Sample answers from the record:
binder	qualitative_label
{Indole‑3‑acetyl}-NSF[azaGly]L[Arg(Me)]F-NH2 [Compound No. 266: des(1-3)-Indole-3-acetyl-[AzaGly7,Arg(Me)9]MS10]	Criterion not met
Y[dN][4Pal]NSF[azaGly]L[Arg(Me)]F-NH2 [Compound No. 304: [D-Asn2,Pya(4) 3,AzaGly7,Arg(Me)9]MS10]	Criterion met
[dY]NWNSFGL[Arg(Me)]W-NH2 (N-terminus assumed; SMILES CNC(=N)NCCC[C@H](NC(=O)[C@H](CC(C)C)NC(=O)CNC(=O)[C@H](Cc1ccccc1)NC(=O)[C@H](CO)NC(=O)[C@H](CC(N)=O)NC(=O)[C@H](Cc1c[nH]c2ccccc12)NC(=O)[C@H](CC(N)=O)NC(=O)[C@H](N)Cc1ccc(O)cc1)C(=O)N[C@@H](Cc1c[nH]c2ccccc12)C(N)=O) [Compound No. 174: [D-Tyr1,Arg(Me)9,Trp10]MS10]	Criterion not met
[dY]NSNSF[azaGly]L[Arg(Me)]F-NH2 [Compound No. 191: [D-Tyr1,Ser3,AzaGly7,Arg(Me)9]MS10]	Criterion not met

stdin: Identify whether the reported pIC50 of the following binder is 7 or greater: {4‑(3-Indolyl)butyryl}-NSF[azaGly]L[Arg(Me)]F-NH2 [Compound No. 267: des(1-3)-4-(3-Indolyl)butyryl-[AzaGly7,Arg(Me)9]MS10]
stdout: Criterion not met

stdin: Identify whether the reported pIC50 of the following binder is 7 or greater: [dY]FNSF[azaGly]L[Arg(Me)]F-NH2 [Compound No. 254: des(1)-[D-Tyr2,Phe3,AzaGly7,Arg(Me)9]MS10]
stdout: Criterion met

stdin: Identify whether the reported pIC50 of the following binder is 7 or greater: YNWNSFGLR(Et)F-NH2 [Compound No. 220: [Arg(Et)9]MS10]
stdout: Criterion not met

stdin: Identify whether the reported pIC50 of the following binder is 7 or greater: YNLNSFGLRF-NH2 [Compound No. 68: [Leu3]MS10]
stdout: Criterion met
